System: PA-TU-8902 (Pancreatic Carcinoma)
measurement_protocol: Bliss excess, mean over the matrix (fraction); higher = more synergy

# compound, Bliss excess
rows = [
    ("Cc1cc2ncnn2cc1Nc1ncc2c(n1)n(C1CCOCC1)c(=O)n2C [AZD7648] + CCN(CCO)CCCOc1ccc2c(Nc3cc(CC(=O)Nc4cccc(F)c4)[nH]n3)ncnc2c1 [AZD2811] (first compound max 10 µM, 7x7, partner max 1 µM)", 0.0315),
    ("COc1nnc2ccc(N3CCC(c4ccc(OCCN5CCN(C)C(=O)[C@H]5C)cc4)CC3)nn12 [AZD5153] + Cc1c2c(nn1C)CSCc1cc(n(C)n1)CSc1cc(c3ccccc3c1)OCCCc1c(C(=O)O)n(C)c3c-2c(Cl)ccc13 [AZD5991] (first compound max 1 µM, 7x7, partner max 1 µM)", -0.0316),
    ("NC1(C(=O)N[C@@H](CCO)c2ccc(Cl)cc2)CCN(c2ncnc3[nH]ccc23)CC1 [Capivasertib] + COc1nnc2ccc(N3CCC(c4ccc(OCCN5CCN(C)C(=O)[C@H]5C)cc4)CC3)nn12 [AZD5153] (first compound max 10 µM, 7x7, partner max 1 µM)", -0.0841),
    ("CN(C)CCCOc1ccc(-c2ccc3ncc4c(c3c2)n(C2CCOCC2)c(=O)n4C)cn1 [AZD0156] + CCN(CCO)CCCOc1ccc2c(Nc3cc(CC(=O)Nc4cccc(F)c4)[nH]n3)ncnc2c1 [AZD2811] (first compound max 1 µM, 7x7, partner max 1 µM)", -0.0223),
    ("CC1(C)CCC(CN2CCN(c3ccc(C(=O)NS(=O)(=O)c4ccc(NCC5CCOCC5)c([N+](=O)[O-])c4)c(Oc4cnc5[nH]ccc5c4)c3)CC2)=C(c2ccc(Cl)cc2)C1 [Venetoclax] + C=CCn1c(=O)c2cnc(Nc3ccc(N4CCN(C)CC4)cc3)nc2n1-c1cccc(C(C)(C)O)n1 [AZD1775] (first compound max 1 µM, partner max 1 µM)", -0.0622),
    ("COc1cccc(OCCCN)c1-c1cc(Nc2cnc(C#N)cn2)n[nH]1 [Prexasertib] + O=C(c1cc(Cc2n[nH]c(=O)c3ccccc23)ccc1F)N1CCN(C(=O)C2CC2)CC1 [Olaparib] (first compound max 1 µM, 7x7, partner max 10 µM)", -0.0783),
    ("CC(=O)c1c(C)c2cnc(Nc3ccc(N4CCNCC4)cn3)nc2n(C2CCCC2)c1=O [Palbociclib] + Cc1c2c(nn1C)CSCc1cc(n(C)n1)CSc1cc(c3ccccc3c1)OCCCc1c(C(=O)O)n(C)c3c-2c(Cl)ccc13 [AZD5991] (first compound max 10 µM, 7x7, partner max 1 µM)", -0.0469),
]

----------
Test system: WSU-DLCL2 (B-Cell Non-Hodgkin's Lymphoma)
measurement_protocol: Bliss excess, mean over the matrix (fraction); higher = more synergy

# compound, target_desc, Bliss excess
data = [
    ("CC1(C)CCC(CN2CCN(c3ccc(C(=O)NS(=O)(=O)c4ccc(NCC5CCOCC5)c([N+](=O)[O-])c4)c(Oc4cnc5[nH]ccc5c4)c3)CC2)=C(c2ccc(Cl)cc2)C1 [Venetoclax] + CN(C)CCCOc1ccc(-c2ccc3ncc4c(c3c2)n(C2CCOCC2)c(=O)n4C)cn1 [AZD0156] (first compound max 1 µM, 7x7, partner max 1 µM)", "WSU-DLCL2 (B-Cell Non-Hodgkin's Lymphoma)", 0.0518),
    ("CN(CCO)CC[C@H](CSc1ccccc1)Nc1ccc(S(=O)(=O)NC(=O)c2ccc(N3CCC([C@@H](O)c4ccccc4-c4ccc(Cl)cc4)CC3)cc2)cc1S(=O)(=O)C(F)(F)F [AZD4320] + Nc1ccn([C@@H]2O[C@H](CO)[C@@H](O)C2(F)F)c(=O)n1 [Gemcitabine] (first compound max 1 µM, 7x7, partner max 0.3 µM)", "WSU-DLCL2 (B-Cell Non-Hodgkin's Lymphoma)", 0.0032),
    ("Cc1c2c(nn1C)CSCc1cc(n(C)n1)CSc1cc(c3ccccc3c1)OCCCc1c(C(=O)O)n(C)c3c-2c(Cl)ccc13 [AZD5991] + C=CCn1c(=O)c2cnc(Nc3ccc(N4CCN(C)CC4)cc3)nc2n1-c1cccc(C(C)(C)O)n1 [AZD1775] (first compound max 1 µM, partner max 1 µM)", "WSU-DLCL2 (B-Cell Non-Hodgkin's Lymphoma)", -0.0245),
    ("CC1(C)CCC(CN2CCN(c3ccc(C(=O)NS(=O)(=O)c4ccc(NCC5CCOCC5)c([N+](=O)[O-])c4)c(Oc4cnc5[nH]ccc5c4)c3)CC2)=C(c2ccc(Cl)cc2)C1 [Venetoclax] + C[C@@H](Nc1cc(F)cc(F)c1)c1cc(C(=O)N(C)C)cc2c(=O)cc(N3CCOCC3)oc12 [AZD8186] (first compound max 1 µM, 7x7, partner max 3 µM)", "WSU-DLCL2 (B-Cell Non-Hodgkin's Lymphoma)", 0.0951),
]

----------
Test system: SNU-61 (Colorectal Carcinoma)
measurement_protocol: Bliss excess, mean over the matrix (fraction); higher = more synergy

# molecule, Bliss excess
rows = [
    ("COc1cccc(OCCCN)c1-c1cc(Nc2cnc(C#N)cn2)n[nH]1 [Prexasertib] + Cc1cc2ncnn2cc1Nc1ncc2c(n1)n(C1CCOCC1)c(=O)n2C [AZD7648] (first compound max 1 µM, 7x7, partner max 10 µM)", -0.0123),
    ("CC1(C)CCC(CN2CCN(c3ccc(C(=O)NS(=O)(=O)c4ccc(NCC5CCOCC5)c([N+](=O)[O-])c4)c(Oc4cnc5[nH]ccc5c4)c3)CC2)=C(c2ccc(Cl)cc2)C1 [Venetoclax] + C1CN(CCC1(C(=O)N[C@@H](CCO)C2=CC=C(C=C2)Cl)N)C3=NC=NC4=C3C=CN4 [Capivasertib] (first compound max 1 µM, 7x7, partner max 3 µM)", -0.0321),
    ("NC1(C(=O)N[C@@H](CCO)c2ccc(Cl)cc2)CCN(c2ncnc3[nH]ccc23)CC1 [Capivasertib] + CC(=O)c1c(C)c2cnc(Nc3ccc(N4CCNCC4)cn3)nc2n(C2CCCC2)c1=O [Palbociclib] (first compound max 10 µM, 7x7, partner max 10 µM)", -0.0289),
]

----------
Bliss excess values for the compounds below.
Test system: EKVX (Non-Small Cell Lung Carcinoma)
measurement_protocol: Bliss excess, mean over the matrix (fraction); higher = more synergy

# compound, target_desc, Bliss excess
rows = [
    ("Cc1c2c(nn1C)CSCc1cc(n(C)n1)CSc1cc(c3ccccc3c1)OCCCc1c(C(=O)O)n(C)c3c-2c(Cl)ccc13 [AZD5991] + C[C@@H](Nc1cc(F)cc(F)c1)c1cc(C(=O)N(C)C)cc2c(=O)cc(N3CCOCC3)oc12 [AZD8186] (first compound max 1 µM, 7x7, partner max 3 µM)", "EKVX (Non-Small Cell Lung Carcinoma)", 0.0062),
    ("CN(CCO)CC[C@H](CSc1ccccc1)Nc1ccc(S(=O)(=O)NC(=O)c2ccc(N3CCC([C@@H](O)c4ccccc4-c4ccc(Cl)cc4)CC3)cc2)cc1S(=O)(=O)C(F)(F)F [AZD4320] + CCN(CCO)CCCOc1ccc2c(Nc3cc(CC(=O)Nc4cccc(F)c4)[nH]n3)ncnc2c1 [AZD2811] (first compound max 1 µM, 7x7, partner max 1 µM)", "EKVX (Non-Small Cell Lung Carcinoma)", -0.0476),
    ("CN(C)CCCOc1ccc(-c2ccc3ncc4c(c3c2)n(C2CCOCC2)c(=O)n4C)cn1 [AZD0156] + C[C@@H]1COCCN1C2=NC(=NC(=C2)C3(CC3)[S@](=N)(=O)C)C4=C5C=CNC5=NC=C4 [AZD6738] (first compound max 1 µM, 7x7, partner max 10 µM)", "EKVX (Non-Small Cell Lung Carcinoma)", -0.0388),
]

----------
Test system: MEG-01 (Chronic Myelogenous Leukemia)
measurement_protocol: combination Emax (second highest fraction inhibited in the dose matrix, 72 h); higher = more inhibition; extreme values may be limits of the assay
combination Emax values for the molecules below.

# molecule, combination Emax
rows = [
    ("COc1cccc2c1C(=O)c1c(O)c3c(c(O)c1C2=O)C[C@@](O)(C(=O)CO)C[C@@H]3O[C@H]1C[C@H](N)[C@H](O)[C@H](C)O1 [Doxorubicin] + Cc1cc2ncnn2cc1Nc1ncc2c(n1)n(C1CCOCC1)c(=O)n2C [AZD7648] (first compound max 1 µM, 7x7, partner max 10 µM)", 0.867),
    ("COc1nnc2ccc(N3CCC(c4ccc(OCCN5CCN(C)C(=O)[C@H]5C)cc4)CC3)nn12 [AZD5153] + Cn1cnc2c(F)c(Nc3ccc(Br)cc3Cl)c(C(=O)NOCCO)cc21 [Selumetinib] (first compound max 1 µM, 7x7, partner max 10 µM)", 0.988),
]

----------
Bliss excess values for the compounds below.
Tested on: SKN-3 (Head and Neck Carcinoma)
measurement_protocol: Bliss excess, mean over the matrix (fraction); higher = more synergy

# compound, target_desc, Bliss excess
measured = [
    ("Cn1cnc2c(F)c(Nc3ccc(Br)cc3Cl)c(C(=O)NOCCO)cc21 [Selumetinib] + C[C@@H]1COCCN1C2=NC(=NC(=C2)C3(CC3)[S@](=N)(=O)C)C4=C5C=CNC5=NC=C4 [AZD6738] (first compound max 10 µM, 7x7, partner max 10 µM)", "SKN-3 (Head and Neck Carcinoma)", 0.0257),
    ("Cc1cc2ncnn2cc1Nc1ncc2c(n1)n(C1CCOCC1)c(=O)n2C [AZD7648] + C[C@@H]1COCCN1C2=NC(=NC(=C2)C3(CC3)[S@](=N)(=O)C)C4=C5C=CNC5=NC=C4 [AZD6738] (first compound max 10 µM, 7x7, partner max 10 µM)", "SKN-3 (Head and Neck Carcinoma)", -0.0279),
    ("C=CCn1c(=O)c2cnc(Nc3ccc(N4CCN(C)CC4)cc3)nc2n1-c1cccc(C(C)(C)O)n1 [AZD1775] + C1CN(CCC1(C(=O)N[C@@H](CCO)C2=CC=C(C=C2)Cl)N)C3=NC=NC4=C3C=CN4 [Capivasertib] (first compound max 3 µM, partner max 3 µM)", "SKN-3 (Head and Neck Carcinoma)", -0.0344),
    ("CN(C)CCCOc1ccc(-c2ccc3ncc4c(c3c2)n(C2CCOCC2)c(=O)n4C)cn1 [AZD0156] + C[C@@H]1COCCN1C2=NC(=NC(=C2)C3(CC3)[S@](=N)(=O)C)C4=C5C=CNC5=NC=C4 [AZD6738] (first compound max 1 µM, 7x7, partner max 10 µM)", "SKN-3 (Head and Neck Carcinoma)", 0.0368),
]

FYI, the data here is from the supplement of paper PMC11061612.
